Listed next: entries and their corresponding DF norm AVERAGE OR47a.
- TARGET_DESC: Drosophila OR47a (Drosophila melanogaster)
- Construct: expressed in transfected cells
- Sequence (P81921 whole entry, one chain of several): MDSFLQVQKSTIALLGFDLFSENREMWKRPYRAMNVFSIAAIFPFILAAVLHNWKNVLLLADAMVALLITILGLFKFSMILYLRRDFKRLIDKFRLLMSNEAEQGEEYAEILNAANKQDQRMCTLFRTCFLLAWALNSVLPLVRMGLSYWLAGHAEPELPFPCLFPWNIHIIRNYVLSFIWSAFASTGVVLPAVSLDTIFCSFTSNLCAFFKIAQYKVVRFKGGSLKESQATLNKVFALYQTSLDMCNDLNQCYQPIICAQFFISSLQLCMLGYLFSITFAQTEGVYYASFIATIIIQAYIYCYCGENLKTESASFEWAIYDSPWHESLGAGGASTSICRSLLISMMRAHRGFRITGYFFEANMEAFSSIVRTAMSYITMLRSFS
- ASSAY_METHOD_TEXT: Calcium ion fluorescence (GCaMP6) assay, OR47a stable HEK293 cell line
- Format: cell-based
- ASSAY_CONDITIONS: ligand concentration 1 (unit not given); threshold 0.05, below shown as 0
Give a plain numeric answer without units written out.

Check out these entries, answers already filled in.
* CCCCCCCCC=O | 0
* CC(=O)c1ccccc1 | 0
* CC(=O)OCC(C)C [isobutyl acetate] | 0.1884
* C=C(C)[C@H]1CC=C(C)CC1 | 0
* CC(C)=CCC/C(C)=C/CC/C(C)=C/CO | 0
* CCOC(=O)CC [ethyl propionate] | 0

**Query** Name the recorded DF norm AVERAGE OR47a for CC1=CC[C@@H](C(C)(C)O)CC1 .
**Result** 0

**Query** Which DF norm AVERAGE OR47a value belongs to C=C1CCC2CC1C2(C)C (centres unmarked) ?
**Result** 0

---

- TARGET_DESC: Drosophila OR13a (Drosophila melanogaster, UniProt Q9VXL0)
- Construct: expressed in transfected cells
- Sequence (Q9VXL0 whole entry, one chain of several): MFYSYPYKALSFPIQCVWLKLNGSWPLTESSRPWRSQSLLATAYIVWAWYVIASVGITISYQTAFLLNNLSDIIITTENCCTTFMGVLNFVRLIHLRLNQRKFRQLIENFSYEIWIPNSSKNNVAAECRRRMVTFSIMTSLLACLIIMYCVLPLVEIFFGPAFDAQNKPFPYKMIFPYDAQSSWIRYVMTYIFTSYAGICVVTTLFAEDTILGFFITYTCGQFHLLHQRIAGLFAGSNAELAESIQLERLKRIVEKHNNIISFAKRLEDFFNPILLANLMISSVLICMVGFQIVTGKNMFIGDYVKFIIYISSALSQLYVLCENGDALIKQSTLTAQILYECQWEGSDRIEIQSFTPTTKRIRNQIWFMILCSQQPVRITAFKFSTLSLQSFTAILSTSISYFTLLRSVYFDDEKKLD
- ASSAY_METHOD_TEXT: Calcium ion fluorescence (GCaMP6) assay, OR13a stable HEK293 cell line
- Assay type: cell-based
- ASSAY_CONDITIONS: 1 μM VOC; 50 μM VUAA1 = 1; responses not exceeding 0.05 considered 0
MEASURED_PROPERTY: OR13a Average response (VUAA1-normalized)

- C=C1[C@H]2CC[C@@H]3[C@H]2C(C)(C)CCC[C@]13C [(+)-longifolene]: 0.00
- C=C(C)C1CCC2(C)OC2C1 (single isomer, unassigned; (+)) [(+)-limonene oxide]: 0.00
- C=C(C)[C@H]1CC=C(C)CC1 [limonene]: 0.00
- CC(C)=CCC/C(C)=C/CC/C(C)=C/CO [e,e-farnesol]: 0.00
- CC/C=C\CCO [Z3-hexenol]: 0.04

**Query** What measured OR13a Average response (VUAA1-normalized) goes with CC/C=C/CCO [e3-hexenol] ?
**Result** 0.00

**Query** Which OR13a Average response (VUAA1-normalized) value is on record for C=C(C)[C@H]1CC=C(C)CC1 [(R)-(+)-limonene] ?
**Result** 0.00

**Query** Look at this molecule and give its reported OR13a Average response (VUAA1-normalized). CC1=CCC[C@@]2(C)[C@@H]3CC[C@]12CC3(C)C [(−)-α-neoclovene]
**Result** 0.0436

---

// values below are reported activity at 100 µM
- TARGET_DESC: Drosophila OR49b (Drosophila melanogaster)
- Construct: expressed in transfected cells
- Sequence (Q9V6H2 whole entry, one chain of several): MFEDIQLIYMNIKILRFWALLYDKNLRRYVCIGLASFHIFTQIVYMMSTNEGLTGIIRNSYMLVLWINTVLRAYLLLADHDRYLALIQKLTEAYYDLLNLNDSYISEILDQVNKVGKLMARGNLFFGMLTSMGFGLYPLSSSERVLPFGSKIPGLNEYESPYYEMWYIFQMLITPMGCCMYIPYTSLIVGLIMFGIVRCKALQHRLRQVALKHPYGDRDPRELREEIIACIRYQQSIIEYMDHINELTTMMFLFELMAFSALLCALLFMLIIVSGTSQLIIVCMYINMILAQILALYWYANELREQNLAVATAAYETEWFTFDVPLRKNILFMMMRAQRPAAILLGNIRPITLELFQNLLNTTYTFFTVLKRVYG
- ASSAY_METHOD_TEXT: cell-based
- Parameters: GCaMP6 calcium fluorescence in stable HEK293 OR+ORCO lines; peak dF normalised to 50 uM VUAA1 (=1)
- ASSAY_CONDITIONS: HEK293; relative to 50 uM VUAA1 response; below 0.05 set to 0; read-out: % activation
Supply the numeric figure in %, leaving out any unit text.

Use these answered entries as a reference point.
- C=C1[C@H]2CC[C@@H]3[C@H]2C(C)(C)CCC[C@]13C [(+)-longifolene]: 0
- C=C(C)[C@H]1CC=C(C)CC1 [(R)-(+)-limonene]: 0
- C=C1CC[C@@]23C[C@@H]1C(C)(C)[C@@H]2CC[C@H]3C [(+)-beta-cedrene]: 0

**Query** Fill in the blank: the reported activity at 100 µM of CCCCCOC(C)=O [pentyl acetate] is ____.
**Result** 6.1

**Query** Would you mind telling me what activity at 100 µM value was observed for C=C(C)C1CCC2(C)OC2C1 (single isomer, unassigned; (+)) [(+)-limonene oxide] ?
**Result** 0

**Query** Would you kindly share the measured activity at 100 µM for OCCc1ccccc1 ?
**Result** 9.32

---

- TARGET_DESC: Drosophila OR85b (Drosophila melanogaster, UniProt Q9VHQ7)
- Construct: expressed in transfected cells
- Sequence (Q9VHQ7 whole entry, one chain of several): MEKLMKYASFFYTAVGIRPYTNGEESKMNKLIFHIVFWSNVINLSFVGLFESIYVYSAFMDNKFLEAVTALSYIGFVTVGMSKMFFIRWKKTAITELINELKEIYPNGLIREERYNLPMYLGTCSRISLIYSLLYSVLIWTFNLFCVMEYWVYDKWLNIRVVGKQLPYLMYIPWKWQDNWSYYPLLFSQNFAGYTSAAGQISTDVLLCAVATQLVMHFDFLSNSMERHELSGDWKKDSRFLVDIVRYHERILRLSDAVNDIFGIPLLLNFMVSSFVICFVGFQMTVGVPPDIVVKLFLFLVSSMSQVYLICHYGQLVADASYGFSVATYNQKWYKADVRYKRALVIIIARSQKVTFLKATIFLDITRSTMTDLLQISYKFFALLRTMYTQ
- ASSAY_METHOD_TEXT: Calcium ion fluorescence (GCaMP6) assay, OR85b stable HEK293 cell line
- Assay type: cell-based
- ASSAY_CONDITIONS: ligand concentration 1 (unit not given); 0.05 threshold, values below shown as 0
Assign class by DF norm AVERAGE OR85b: not lower than 0.1 means condition met; lower than 0.1 means condition not met.

**Query** Record CCCCCCCCCCC ; criterion: DF norm AVERAGE OR85b no lower than 0.1. Met?
**Result** condition not met

**Query** Threshold query (DF norm AVERAGE OR85b >= 0.1) on CC/C=C\CCOC(C)=O [z3-hexenyl acetate]
**Result** condition met

---

Listed next: entries and their corresponding activation at 1 µM.
- TARGET_DESC: Drosophila OR85b (Drosophila melanogaster)
- Construct: expressed in transfected cells
- ASSAY_METHOD_TEXT: Calcium ion fluorescence (GCaMP6) assay, OR85b stable HEK293 cell line
- Assay type: cell-based
- ASSAY_CONDITIONS: HEK293, read-out: OR85b Average response (VUAA1-normalized)
Provide only the numeric value, understood in %.

// solved cases for activation at 1 µM follow
• Cc1ccccc1 [toluene] = 8
• CCCCCOC(C)=O [pentyl acetate] = 2

**Query** Request body: readout activation at 1 µM, system Drosophila OR85b (Drosophila melanogaster), query COC(=O)c1ccccc1O [methyl salicylate] . Return the value.
**Result** 0

---

- TARGET_DESC: Drosophila OR10a (Drosophila melanogaster)
- Construct: expressed in transfected cells
- ASSAY_METHOD_TEXT: Calcium ion fluorescence (GCaMP6) assay, OR10a stable HEK293 cell line
- Type: cell-based
- ASSAY_CONDITIONS: OR10a cell line, VOC concentration 1 μM
MEASURED_PROPERTY: OR10a response (VUAA1-normalized) at 1 μM
Enter a number only.

# annotated cases, reported OR10a response (VUAA1-normalized) at 1 μM shown
* C=CC(C)(O)CCC=C(C)C (centres unmarked) [linalool] | 0.00
* CCCCCCCCC=O [nonanal] | 0.00

Alright, here's another compound for you.
**Query** API: value(readout=OR10a response (VUAA1-normalized) at 1 μM, system=Drosophila OR10a (Drosophila melanogaster)) for record Cc1ccccc1C [o-xylene]
**Result** 0.00

---

- TARGET_DESC: Drosophila OR10a (Drosophila melanogaster, UniProt Q9VYZ1)
- Construct: expressed in transfected cells
- Sequence (Q9VYZ1 1-406): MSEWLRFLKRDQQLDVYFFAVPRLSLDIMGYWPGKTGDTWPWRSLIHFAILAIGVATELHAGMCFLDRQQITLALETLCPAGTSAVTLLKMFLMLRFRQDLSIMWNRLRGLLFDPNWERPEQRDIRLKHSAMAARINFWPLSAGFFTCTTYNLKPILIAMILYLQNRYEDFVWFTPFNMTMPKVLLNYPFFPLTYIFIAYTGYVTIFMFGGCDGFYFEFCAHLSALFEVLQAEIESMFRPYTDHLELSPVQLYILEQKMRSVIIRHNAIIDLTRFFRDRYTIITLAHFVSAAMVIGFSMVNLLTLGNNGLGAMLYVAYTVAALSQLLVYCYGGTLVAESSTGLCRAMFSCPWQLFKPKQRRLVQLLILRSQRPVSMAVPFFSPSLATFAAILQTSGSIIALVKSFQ
- Sequence (Q9VNB5 1-486 partner): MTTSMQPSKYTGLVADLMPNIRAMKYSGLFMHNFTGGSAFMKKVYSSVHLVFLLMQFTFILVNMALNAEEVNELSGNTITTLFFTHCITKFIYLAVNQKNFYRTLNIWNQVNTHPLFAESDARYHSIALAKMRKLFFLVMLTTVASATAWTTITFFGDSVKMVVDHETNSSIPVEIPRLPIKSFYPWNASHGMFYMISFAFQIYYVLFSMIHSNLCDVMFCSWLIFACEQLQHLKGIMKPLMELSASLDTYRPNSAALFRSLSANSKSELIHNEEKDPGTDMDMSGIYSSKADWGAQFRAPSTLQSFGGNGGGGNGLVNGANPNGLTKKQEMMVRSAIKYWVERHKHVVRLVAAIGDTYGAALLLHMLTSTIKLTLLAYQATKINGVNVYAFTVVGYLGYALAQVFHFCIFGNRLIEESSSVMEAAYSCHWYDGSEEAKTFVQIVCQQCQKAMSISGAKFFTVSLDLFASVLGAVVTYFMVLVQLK
- ASSAY_METHOD_TEXT: Calcium ion fluorescence (GCaMP6) assay, OR10a stable HEK293 cell line
- Assay type: cell-based
- ASSAY_CONDITIONS: ligand concentration 10 (unit not given); threshold 0.05, below shown as 0
Recorded DF norm AVERAGE OR10a values for a group of compounds are listed next.
A bare number is all that is needed in reply.

• CCCCCCCCCC=O = 0
• O=Cc1ccccc1 = 0
• CCCOC(C)=O [propyl acetate] = 0.08914

**Query** Fill blank: measured DF norm AVERAGE OR10a of the compound C=C(C)[C@H]1CC=C(C)CC1 is ____.
**Result** 0

**Query** Give the measured DF norm AVERAGE OR10a of CC(C)=CCC/C(C)=C/CC/C(C)=C/CO .
**Result** 0.06329

**Query** Return reported DF norm AVERAGE OR10a; argument: CC(=O)OCC(C)C [isobutyl acetate]
**Result** 0

**Query** Item C=C1CCC2(C(C)C)CC12 (stereo not shown) has what recorded DF norm AVERAGE OR10a?
**Result** 0
